Every entry's value here was drawn from patent US11065249B2.

# Test system: human hepatocytes
# Protocol Description: High throughput determination of intrinsic clearance in human hepatocytes
# Type: in vitro ADME
# Condition Details: high throughput human hepatocyte assay, 1 μM test compound; mean +/− Std Dev
Where a name gives a salt, the structure may show the parent alone.
Assay Metric: CLint (+/−Std Dev)

1) CCOc1cccnc1Oc1cncc(-c2ncc(C(=O)N[C@H]3CCOC3)cn2)c1    <3.8 +/− 1.1 μL/min/10^6 cells
2) CCOc1cccnc1Oc1cncc(-c2ncc(C(=O)NC3CCS(=O)(=O)C3)cn2)c1 (stereo not drawn)    5.1 +/− 0.69 μL/min/10^6 cells
3) CCOc1cccnc1Oc1cncc(-c2ncc(C(=O)N[C@@H]3CCOC3)cn2)c1    4.7 +/− 0.55 μL/min/10^6 cells
4) CCOc1cccnc1Oc1cncc(-c2ncc(C(=O)NC3(CO)CCOC3)cn2)c1 (single isomer, unassigned) [WO2018033832 Ex. 6a]    <3.8 +/− 1.1 μL/min/10^6 cells
5) CCOc1cc(F)cnc1Oc1cncc(-c2ncc(C(=O)N[C@H]3CCOC3)cn2)c1    9.3 +/− 0.52 μL/min/10^6 cells
6) CCOc1cc(F)cnc1Oc1cncc(-c2ncc(C(=O)N[C@@H]3CNCC[C@@H]3F)cn2)c1 [Example 1, bis(trifluoroacetate) salt]    <2.7 +/− 0.72 μL/min/10^6 cells
7) CCOc1cccnc1Oc1cncc(-c2ncc(C(=O)NC3(C)CCS(=O)(=O)C3)cn2)c1 (stereo not drawn)    9.3 +/− 1.1 μL/min/10^6 cells
8) CCOc1cccnc1Oc1cncc(-c2ncc(C(=O)NC3(CO)CCOC3)cn2)c1 (single isomer, unassigned) [WO2018033832 Ex. 6b]    <3.3 +/− 0.49 μL/min/10^6 cells
9) CCOc1cccnc1Oc1cncc(-c2ncc(C(=O)N[C@@H]3CNCC[C@@H]3F)cn2)c1 [Example 3, bis(trifluoroacetate) salt]    <1.9 +/− 0.35 μL/min/10^6 cells
